Value source: the nanobody polyreactivity screen of Harvey et al. (2022)

- ASSAY REMARKS: yeast display, Sf9 membrane polyspecificity reagent, FACS + sequencing; frameworks hold sequencing errors
MEASUREMENT NAME: polyreactivity (PSR sort gate)

Consider the reported polyreactivity (PSR sort gate) for these sequences:
State its polyreactivity (PSR sort gate): QVQLVESGGRLVQAGGSLRLSCAASGRIFAQYAMGWYRQAPGKERELVAAISGRGRTTYYADSVKGRFTISRDNEKNNVYLQMNSVKPEDTAAYYCAAKSTYVAGDYSGQGTQVTVSS
high polyreactivity

State its polyreactivity (PSR sort gate): QVQLVESGGGLVQAGGSLRLSCAASGSIFGFYAMGWYRQAPGKEREMVAAITRSGDSTYADSVKGRFTISRDNAKNTVYLQMNSLKPEDTAVYYCADDIDRSDVNSESYDYDYWGQGTQVTVSS
low polyreactivity

State its polyreactivity (PSR sort gate): QVQLVESGGGLVQAGGSLRLICAASGFTFNWYAMGWYRQAPGKERELVATISSTGSTYYADSVKGRFTISRDNAKNTVYLQMNSQKPEDTGVYYCAVRRPPYSYYWDFDSWGQGTPVTVSS
high polyreactivity

State its polyreactivity (PSR sort gate): QDQLVESGGGLVQAGGSLRLSCSASGSTFIRNSKGWYRQATGKERELVAAITTDGSTDYADSVKGRFTISRDNAKNTVYLQMNSLKPEDTAVYYCNAEYRLDALSYDYWGQGTQVTVSS
low polyreactivity

Others:
State its polyreactivity (PSR sort gate): QVQLVESGGGLVQAGGSLRLSCAASGNIFVTYAMGWYRQAPGKERELVAGITSSDDSTYYADSVKGRFTISRDNAKNTVYLQMNSLKPEDPAVYYCATYYWEVGIGQYYYWGQGTQVTVSS
low polyreactivity

----------
- ASSAY REMARKS: yeast display, Sf9 membrane polyspecificity reagent, FACS + sequencing; frameworks hold sequencing errors
MEASUREMENT NAME: polyreactivity (PSR sort gate)

Consider the reported polyreactivity (PSR sort gate) for these sequences:
State its polyreactivity (PSR sort gate): QVQLVESGGGLVQAGGSLRLSCAASGSIFVNNAMGWYRQAPGKERELVAAISSRSSRTFYADSVKGRFTISRDNAKISVYFHMNSLKPVDTGVYYWAVKKRSPHGDYCGQGTQVTVSS
high polyreactivity

State its polyreactivity (PSR sort gate): QVQLIESGGGLVQAGGSLRLSCAASGYTFGAYAMGWYRQAPGKERELVAGITFIGGSTYYADSVKGRFTISRDNAKNTVYLQMNSLKPEDTAVYYCAAPIAFGYRGTVAKYGYWGQGTQVTVSS
low polyreactivity

State its polyreactivity (PSR sort gate): QVQLGESGGGLVQAGGSLRLSCAASGGTYTHYGMGWYRQATGKERELVAAITWTASSTYYADSVKGRFTISRDNAKNTVYLQMNSLKPEDTAVYYCATSYYYWGHTYDYWGQGTQVTVSS
low polyreactivity

State its polyreactivity (PSR sort gate): QVQLVESGGGLVQAGGRLRLSCAASGRIFPVNAMGWYRQAPGKERELVAGITWSGDGSTYYADSVKGRFTISRDNAKNTVYLQMNSLKPEDTAVYYCAARLNLQGRYDYSGQGTQVTVSS
low polyreactivity

State its polyreactivity (PSR sort gate): QDQLVESGGGVVQAGGSLRLSCAASGRISIWYAMGWYRQAPGKERELVARISTSSGRTYYADSVKGRFTISRDNAKNTVYLQMNSLKPEDTAVYYCNAAGYRIYFSTRYDYWGQGTQVTVSS
high polyreactivity

Others:
State its polyreactivity (PSR sort gate): QVQLVESGGDLVQAGGSLRLSCAASGITFVYNAMGWYRQAPGKERELVAGITWSGSSTYYADSVKGRFTISRDNAKNTVYLQMNSLKPEDTAVYYCAAYLYDRTTRYTYYYWGQGTQVTVSS
high polyreactivity

State its polyreactivity (PSR sort gate): QVQIVESGGGLVQAGGSLRLTCAASGSIFGYYAMGWYRQAPGKERELVAAITTGGSTSYADSVKGRFTISRDNAKKTVYLQMNSLKPEDTAVYYCNARFKLLFGRADDYWGQGTQVTVSS
low polyreactivity

----------
- ASSAY REMARKS: yeast display, Sf9 membrane polyspecificity reagent, FACS + sequencing; frameworks hold sequencing errors
MEASUREMENT NAME: polyreactivity (PSR sort gate)

Consider the reported polyreactivity (PSR sort gate) for these sequences:
State its polyreactivity (PSR sort gate): QVQLVESGGGLVQAGGSLRLSCAASGFIFSGYAMGWYRQAPGKERELVAAITSSGGNTYYADSVKGRFTISRDNAKNTVYLQMNSLKAEDTAVYYCARYSIFRWTRDEYWGQGTQVTVSS
high polyreactivity

State its polyreactivity (PSR sort gate): QVQLVESGGGLVQAGGSLRLSCAASGINFRGYAMGWYRQAPGKERELVASITNTDSTYYADSVKGRFTISRDNAKNTVYLQMNSLKPEDTAVYYCAARRGRKYGYWGQGTQVTVSS
high polyreactivity

State its polyreactivity (PSR sort gate): QVQLVESGGGLVQAGGSLRLSCAAYGRTLRPYAMGWYRQAPGKERELVASIRRDGSTYADSVKGRYTISLDNAKNTVYLQMNSLKPEDTAVYYCAAARGYPLSYWGQGTQVTVSS
low polyreactivity

State its polyreactivity (PSR sort gate): QVQLVESGGGLVQAGGSLRLSCAASGSIFVGYAMGWYRQAPGKERELVAAISTRGGSTYYADSVKGRFTISRDNAKNTVYLQMNSLKPEDTAVYDCAADYLDSTYGYVYGWDDYWGQGTQVTVSS
low polyreactivity

State its polyreactivity (PSR sort gate): QVQLVESGGGLVQAGGSLRLSCAASGITFDSYAMGWYRQAPGKERELVATISRSGTTTYYADSVKGRFTISRDNAKNTGYLQMNSLKPEDTAVYYCNTLRDYWTYHFYGAVRDGYDYWGQGTQVTVSS
low polyreactivity

State its polyreactivity (PSR sort gate): QVQLVQSGGGLVQAGGSLRLSCADSGFIFFTNAMGRYRQAPGQDREFVAAISDSSGSTYYADSVKGRFTISRDNAKNTVYLQMNSLKPEDTAVYYCAAEYPQVTIIGYYYYWGQGTQVTVSS
low polyreactivity

State its polyreactivity (PSR sort gate): QVQLVESGGGLVQAGGSLRLSCAASGFTFTDYTMGWYRQAPGKEREFVAAISYRGSNTYYADSVKGRFTISRDNAKNTVYLQMNSLKPEDTAVYYCAADSYRYKYNYWGQGTQVTVSS
high polyreactivity

State its polyreactivity (PSR sort gate): QVQLVESGGGLVQAGGSLRLSCAASGRIFGTNAMGWYRQAPGTEMELDADITSGGSTNYADSVKGRFTISRDNAKNTVYLQMNSLKPEDTAVYYCAADVIGDLRWYREEYWGQGTQVTVSS
low polyreactivity

Others:
State its polyreactivity (PSR sort gate): QVHLVESGGGLVQAGGSLRLSCAASGSTFGGNAMGWYRQPPGKERELVAAISSGDSTTYADSVKGRFTISRDNAKNTVYLQMNSLKPEDTAVYYCNADYTDTLTGYFSDEVYHGMDYWGQGTQVTVSS
low polyreactivity

State its polyreactivity (PSR sort gate): QVQLVESGGGLVQAGGSLRLSCAASGSTLSVYAKGSYIQAPGKEREFVASISSSVGRTFYADSVKGRFTISRDNANNTVYLQMNSLNQEDTAVYYCAARRRTFYASSSAINGYDYWRQGTQVTVSS
high polyreactivity

State its polyreactivity (PSR sort gate): QVQLVESGGGLVQAGGSLRLICAASGFIFTSYTMGWYRQAPGKERELVAAISRSGGRTYYADSVKGRFTISRDNAKNTVYLQMNRLKPVDTAVYYCNAGYPASYYYYGFDYWGQGTQVTVSS
high polyreactivity

----------
- ASSAY REMARKS: yeast display, Sf9 membrane polyspecificity reagent, FACS + sequencing; frameworks hold sequencing errors
MEASUREMENT NAME: polyreactivity (PSR sort gate)

Consider the reported polyreactivity (PSR sort gate) for these sequences:
State its polyreactivity (PSR sort gate): QVQLVESGGGLVQAGGSLRLSCAASGSIFAANVMGWYRQAPGKERELVAVISGGGGRTFYADSVKGRFTISRDNAKNTVYLQMNSLKPEDTAVYYCAADRRDRSPYYYWGQGTQVTVSS
high polyreactivity

State its polyreactivity (PSR sort gate): QVQLVESGGCLVKAGGSLRLSSAASGSTFYYYAMGWYRQAPGKERELVAAITVNGGSTYYADSVKGRFTISRDNANNTVYLQMNSLKPGVTAVYYCAADDTYWVYPYTYSTYEYWGQGNQVTVSS
low polyreactivity

State its polyreactivity (PSR sort gate): QVQLVESVGGLVQAGGSLRLSGAASGSTFGRYAMGWSRQAPGKEREFVANISWSDGSTNYADSVKGRFTISRDHAKNTVYFQMNSLKPEDTAVYYCATGLGYTAFGKEVYDWHDYWGQGTQVTVSS
low polyreactivity

State its polyreactivity (PSR sort gate): QVQLVESGGALVQAGGSLRLSCAASGSLFERYAMGWYRQAPVKEREFVATITSGGGRTYYADSVKGRFTISRDNAKNTVYLQMNSLQPEDTAVYYCTAVYRARSYDYWGQGTQVTVSS
high polyreactivity

State its polyreactivity (PSR sort gate): QVQLVESGGGLVQAGGSLRLSCAASGSIFFVYAMGWYRQAPGKERELVAGIRWSGGRTSYADSVKGRFTISRDNAKNTVYLQMNSLNPEDTAVYYCAADPRSYFTSEYWGQGTQVTVSS
high polyreactivity

State its polyreactivity (PSR sort gate): QVQLVESGGGLVQAGGSLRLSCAASGFIFSGNAMGWYRQAPGKERELVARIRSGDRTYYADSVKGRFTISRDNAKNTVYLQMNSLKPEDTAVYYCAAYAWYDWRSYFPILGYEYWGQGTQVTVSS
low polyreactivity

State its polyreactivity (PSR sort gate): QVQLVESGGGLVQAGGSLRLSCAASGFTFLKYAMGGYRQAPGKERDLVARITSGGRTYYADSVKGRFTISRDNAKNTVYLQMNSLKPEDTAVYYCNAVKSYASLYAVFYDWGQGTQVTVSS
high polyreactivity

State its polyreactivity (PSR sort gate): QVQLVESGGGLVQAGGSLRLSCAASGSTFSWYAMGWYRPAPGKEMELVAAISSGGSTNYADSVKGRFTISRDNAKNTVYLQMNSLKPEDTAVFYCAAVWSRFLISYSTGWWFEYWGQGTQVTVSS
low polyreactivity

Others:
State its polyreactivity (PSR sort gate): QVQLVESGGGLVQAGGSLRLSCAASGYIFGYYVMGWYRQARGKERELVAAISDSDITYYADSVKGRFTISRDNAKNTVSLQMNSLKPEDTAVYYCNADFGYWWDGRRYDYWGQGTQVTVSS
low polyreactivity

State its polyreactivity (PSR sort gate): QVQLVESGGGLVQAGGSLRLSCAASGFILLYYAMGWYRQAPVKERELVATITWSDGSTYYADSVKGRFTISRDNAKNTVYLQMNSLKPEDTAVYYCASPYKRYFYKGGDYWGQGTQVTVSS
low polyreactivity

State its polyreactivity (PSR sort gate): QVQLVESGGGLVQAGGSLRLSCAASGNTFGIYAMGWYRQAPGKERELVAAISSGTSTNYADSVKGRFTISRDNAKNTVYLQMNSLKPEDTAVYYCNADDQYQDVREDYWGQGTQVTVSS
low polyreactivity
